Experiment: Cell Proliferation Assay against the HBL1 Cell Line (AID 651646);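 also: cells exposed to compound for 48 h before reading; 100% = DMSO and 0% = 9.2 µM bortezomib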
Conditions: HBL1 DLBCL cells; at 46.1 µM (top of the series) unless noted
Note to self: class = bucket of viability, percent of control, per low = under 20%, middle = from 20% up to 70%, high = 70% and over

Given `CN(C)C1CCN(C(=O)c2ccc(NC(=O)Nc3nc(N4CCOCC4)nc(N4CCOCC4)n3)cc2)CC1` , name the class its viability, percent of control places it in.
middle

Another compound: `COc1cc(Nc2ncc(F)c(Nc3ccc4c(n3)NC(=O)C(C)(C)O4)n2)cc(OC)c1OC`
middle

Another compound: `CC(C)(C(=O)NCC(F)(F)C(F)(F)F)C(=O)N[C@@H]1C(=O)Nc2ccccc2-c2ccccc21`
high

Another compound: `COc1cc2ncnc(Nc3ccc(F)c(Cl)c3)c2cc1OCCCN1CCOCC1`
middle

Another compound: `CCOc1ccc(Nc2nc(-c3c(C)nc4ccccn34)cs2)cc1`
low

Another compound: `O=C(Nc1cc(Cl)cc2c1[nH]c1cnccc12)c1cccnc1`
middle

Another compound: `CC(C)C(=O)Nc1ncc(-c2cc(C(F)F)nn2-c2c(Cl)cccc2Cl)s1`
low

Another compound: `COc1cc(N2CCC(N3CCN(C)CC3)CC2)ccc1Nc1ncc(Cl)c(Nc2ccccc2S(=O)(=O)C(C)C)n1`
low

Another compound: `OC[C@H]1O[C@@H](n2cnc3c2NC=NC[C@@H]3O)C[C@H]1O`
high

Another compound: `O=C1C(Cl)=C(NCCN2CCOCC2)C(=O)c2ncccc21`
low

Another compound: O=C(O)CCC1CCC(c2cc(F)ccc2F)(S(=O)(=O)c2ccc(Cl)cc2)CC1 (stereo not drawn)
high

Another compound: `CC1=C(/C=C/C(C)=C/C=C/C(C)=C/C(=O)Nc2ccc(O)cc2)C(C)(C)CCC1`
low

Another compound: `O=C(O)c1ccc(-c2cc3cccnc3c(-c3ccc4nonc4c3)n2)cc1`
high

Another compound: `CC(=O)Nc1ccc([C@H](C)C(=O)Nc2ncc(C(C)C)s2)cc1`
middle

Another compound: `CC(C)[C@H](CO)Nc1nc(Nc2ccc(C(=O)O)c(Cl)c2)c2ncn(C(C)C)c2n1`
high

Another compound: `COc1cc2ncnc(-n3nc(-c4ccccn4)nc3N)c2cc1OC`
low

---

Experiment: High-throughput drug toxicity screening in the BPDCN cell line Gen2.2 (AID 1224824);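 also: cells exposed to compounds for 48 h before reading; 100% = DMSO and 0% = bortezomib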
Details: Gen2.2 BPDCN cells; at 45.8 µM (top of the series) unless noted
propertyLabel: cell viability, % of control (lower = more cytotoxic) (%)
Give the number; % is assumed, so skip it.

Example entries begin here.
| structureString | unitAnnotation | reportedValue |
| --- | --- | --- |
| NC(CO)(CO)CCc1ccc(Sc2cccc(OCc3ccccc3)c2)cc1Cl | % | 7.64 |
| CC1(C)S[C@H]2[C@H](NC(=O)[C@@H](N)c3ccc(O)cc3)C(=O)N2[C@@H]1C(=O)O | % | 125 |
| O=C(N[C@@H](c1ccccc1)[C@@H]1CCCCN1)c1cccc(C(F)(F)F)c1Cl | % | 87.4 |
| CCc1ccc(OCc2ccccc2C(=O)Nc2ccc3nc(C)cc(N)c3c2)cc1 | % | 7.97 |
| COc1ccc(-c2cc(=O)c3c(O)cc(O)cc3o2)cc1O | % | 97.2 |

Consider the compound `O=c1cc(-c2cccc3c2Sc2ccccc2S3)oc(N2CCOCC2)c1` and give its measured cell viability, % of control (lower = more cytotoxic).
22.3

Origin of values: PubChem BioAssay (NCATS)
